System: S. aureus RN450
Experimental Details: In Vitro Anti-Bacterial Activity Assay (MIC), gram positive
Format: cell-based
Stated Conditions: Staphylococcus aureus, RN450, 18 h, gram positive bacteria; read-out: Antibiotic Activity Gram + (MIC)
Reported MIC values follow for various molecules
Metric: MIC

- CCc1cc(NCC(C)C)c(O)c2c1C[C@H]1C[C@H]3[C@H](N(C)C)C(O)=C(C(N)=O)C(=O)[C@@]3(O)C(O)=C1C2=O: < 4 µg/mL
- CN(C)CC(=O)NCc1ccc(-c2ccc(O)c3c2C[C@H]2C[C@H]4[C@H](N(C)C)C(O)=C(C(N)=O)C(=O)[C@@]4(O)C(O)=C2C3=O)cc1: < 4 µg/mL
- CN(C)c1cc(CCCNS(C)(=O)=O)c(O)c2c1C[C@H]1C[C@H]3[C@H](N(C)C)C(O)=C(C(N)=O)C(=O)[C@@]3(O)C(O)=C1C2=O: > 4 µg/mL
- CN1CCC(N(C)c2ccc3c(c2O)C(=O)C2=C(O)[C@]4(O)C(=O)C(C(N)=O)=C(O)[C@@H](N(C)C)[C@@H]4C[C@@H]2C3)CC1: > 4 µg/mL
- CN(C)c1cc(CNC2CCCC2)c(O)c2c1C[C@H]1C[C@H]3[C@H](N(C)C)C(O)=C(C(N)=O)C(=O)[C@@]3(O)C(O)=C1C2=O: < 4 µg/mL
- CN(C)CCC(=O)c1ccc(O)c2c1C[C@H]1C[C@H]3[C@H](N(C)C)C(O)=C(C(N)=O)C(=O)[C@@]3(O)C(O)=C1C2=O [drawing 3401]: < 4 µg/mL
